Molecular target: T1, human NTR1 (human, UniProt P30989 1-418)
T1 construct: whole, on cells; PI turnover on intact cells; also called hNTR; hNTR1
T1 sequence (P30989 whole entry): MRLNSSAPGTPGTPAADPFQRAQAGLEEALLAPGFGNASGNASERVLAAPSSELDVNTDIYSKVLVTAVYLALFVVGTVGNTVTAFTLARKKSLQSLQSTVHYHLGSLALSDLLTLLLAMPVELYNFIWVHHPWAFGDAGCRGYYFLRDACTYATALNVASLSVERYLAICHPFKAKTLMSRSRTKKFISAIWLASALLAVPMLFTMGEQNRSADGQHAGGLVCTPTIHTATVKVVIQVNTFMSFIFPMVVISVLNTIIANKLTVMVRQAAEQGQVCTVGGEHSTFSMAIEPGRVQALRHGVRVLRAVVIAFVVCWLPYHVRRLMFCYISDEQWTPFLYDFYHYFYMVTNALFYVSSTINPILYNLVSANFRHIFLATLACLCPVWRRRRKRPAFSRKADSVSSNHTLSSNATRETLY
Experiment: competition with [3H]NT, membranes of CHO-K1 cells expressing human NTR1
Square brackets hold non-standard residues; d marks the D form. Ends that are not written are not given here. Ala(indol-4-yl) = N[C@@H](Cc1cccc2[nH]ccc12)C(=O)O; NMeR = CN[C@@H](CCCNC(=N)N)C(=O)O; Tle = CC(C)(C)[C@H](N)C(=O)O
readout_name: Kd (nM)

- binder: "RPYIL (Synthetic pentapeptide, residues 9-13 of neurotensin) [NT(9-13)]"
  value_observed: 30
- binder: "RRP[Ala(indol-4-yl)][Tle]L (NT(8-13) analog) [NT65L]"
  value_observed: 0.32
- binder: "RRPWIL [NTW]"
  value_observed: 3.2
- binder: "[NMeR]KPW[Tle]L (Hexapeptide N-methyl-Arg, L-Lys, L-Pro, L-Trp, tert-Leu, L-Leu (Tsuchiya et al., EP application 89104302.8); also called Eisai compound; Eisai analog) [Eisai]"
  value_observed: 95
